- Test system: NCI-H460
- test protocol: NCI tumour cell line growth inhibition, 48 h
Active and inactive are the calls of the source. No stated cut-off is given here; in the data, active = GI50 up to about 1.1 µM and inactive = higher.
reported metric: GI50

Below are worked cases with known answers.
molecule | reported metric | recorded value
CNc1ccc2nc(-c3ccc(OC(=O)N(C)C)cc3)cn2c1 | GI50 | 17.5 µM (inactive)
Oc1ccc(-c2nc3ccc(F)cc3s2)cc1 | GI50 | 24.1 µM (inactive)

Task item: For the molecule shown here, CCCCON1C[C@H](OC(C)=O)C(OC(C)=O)[C@H](OC(C)=O)C1 (stereo partly specified) , give the reported GI50.
Reply: > 100 µM (inactive)

Task item: For the molecule shown here, CC(=O)OCC1OC(OC2CC3C(C)(C)C(OC(C)=O)CC[C@]3(C)C3CCC45CC4(CCC5[C@@H](C)C[C@H](O)C(O)C(C)(C)O)[C@]23C)C(O)C(O)C1O (stereo partly specified) , give the reported GI50.
Reply: > 10 µM (inactive)

----------
- Tested on: SF-539
- test protocol: NCI tumour cell line growth inhibition, 48 h
The source made the active and inactive calls. Rule as the data show it: active = GI50 up to about 1.1 µM and inactive = higher.
Assign a class; possible classes are active, inactive

Task item: What did this assay record as the result for C=C[C@@H]1C[C@]2(C(=O)OC)Cc3nc4ccccc4nc3CC(C(=O)OC)=C2O1 ?
Reply: inactive

----------
- Tested on: SR
- test protocol: NCI tumour cell line growth inhibition, 48 h
Activity calls are given as the source filed them. Cut-off read from the data, not from the text of the source: active = GI50 up to about 1.1 µM and inactive = higher.
Entries and their GI50

Below are worked cases with known answers.
compound | assay target | reported metric | recorded value
O=C1[C@H]2ON(c3ccccc3)C(c3ccc(Cl)cc3Cl)[C@H]2C(=O)N1c1ccc(Cc2ccc(N3C(=O)[C@@H]4ON(c5ccccc5)C(c5ccc(Cl)cc5Cl)[C@@H]4C3=O)cc2)cc1 (stereo not given in full) | SR | GI50 | 44.1 µM (inactive)
CN(/N=C(\C(=O)O)c1ccccc1)C1=NCCCCN1 | SR | GI50 | > 100 µM (inactive)
O=C1N2CCc3c([nH]c4ccccc34)C23CC2CCCC12S3 (stereo not given) | SR | GI50 | 28.9 µM (inactive)
CC(C)=C1C(=O)c2c(Cl)sc(Cl)c2C1=O | SR | GI50 | 27.2 µM (inactive)

// below: GI50 requested for another compound
Task item: For the compound shown here, COc1ccc(Cn2c3c(cc(OS(=O)(=O)C(F)(F)F)c2=O)Cc2ccccc2-3)cc1 , give the reported GI50.
Reply: 4.36 µM (inactive)

----------
- Tested on: NCI-H522
- test protocol: NCI tumour cell line growth inhibition, 48 h
Active and inactive are the calls of the source. Rule as the data show it: active = GI50 up to about 1.1 µM and inactive = higher.
Assign a class; possible classes are class 1 = active, class 0 = inactive

Solved entries (count: 3):
molecule | label
CC(=O)COC(=O)CC(C)=O | class 0
Cc1nc(C)c(N2CCNCC2)c(O)n1 | class 0
C=CC[C@@]1(C(=O)OC)[C@H](Sc2ccccc2)C1(C)C | class 0

Task item: What did this assay record as the result for CC(C)OP(=O)(OC(C)C)C(C(F)(F)F)C(F)(F)F ?
Reply: class 0

Task item: What did this assay record as the result for COc1ccc(C(=O)CCN(C)C)c2ccccc12 ?
Reply: class 0

Task item: What did this assay record as the result for COc1cc(NCC2COc3c(ccc(OC)c3OC)C2=O)c([N+](=O)[O-])cc1OC (centres undefined) ?
Reply: class 0

Task item: What did this assay record as the result for Cc1ccc2c(O)cc(-c3cccs3)nc2n1 ?
Reply: class 0

Task item: What did this assay record as the result for NCC(O)CSP(=O)(O)O (centres undefined) ?
Reply: class 0

Task item: What did this assay record as the result for COCC(=O)[C@]1(O)Cc2c(O)c3c(c(O)c2[C@@H](OC2CC(N)C(O)C(C)O2)C1)C(=O)c1c(OC)cccc1C3=O (some centres undefined) ?
Reply: class 1
